Cited source: patent US20170074857A1

experiment: Example 4a: noncompartmental pharmacokinetics of exhaled 2-butanone and 2-pentanone by mGC; type: in vivo, human; conditions: both sexes, human, in vivo, MRT0-last
measure_name: MRT last (min)
Provide only the numeric value, understood in min.

Q. Name the recorded MRT last of the item "CCCC(C)=O" in your answer.
A. 25.4

###

assay: Example 4a: noncompartmental pharmacokinetics of exhaled 2-butanone and 2-pentanone by mGC; type: in vivo, human; conditions: both sexes, human, in vivo, TMAX
measure_name: TMAX (min)
Provide only the numeric value, understood in min.

Q. Name the recorded TMAX of the item "CCCC(C)=O" in your answer.
A. 14.8

###

experiment: clinical; conditions: human, exhaled breath, oral, 100 mg
measure_name: Half-life

Q. Name the recorded Half-life of the item "CC(C)=O" in your answer.
A. < 10 h

###

experiment: Example 26: breath d6-acetone after 100 mg d8-isopropanol per diem for 5 days (LTQ-LCMS); conditions: human, in vivo, 100 mg, elimination half life in breath, Example 26 / FIG. 74; after d8-IPA
measure_name: Half-life

Q. Name the recorded Half-life of the item CC(C)=O [acetone] in your answer.
A. ~384 min

###

assay: Example 4a: noncompartmental pharmacokinetics of exhaled 2-butanone and 2-pentanone by mGC; assay type: in vivo, human; conditions: both sexes, human, in vivo, Half-life
measure_name: Half-life (min)
Provide only the numeric value, understood in min.

Q. Name the recorded Half-life of the item "CCCC(C)=O" in your answer.
A. 23.7

###

assay: Example 26: breath d6-acetone after 100 mg d8-isopropanol per diem for 5 days (LTQ-LCMS); settings: human, in vivo, 100 mg, half-life of acetone derived from IPA, exhaled breath
measure_name: Half-life

Q. Name the recorded Half-life of the item "CC(C)=O" in your answer.
A. ~6.5 h
